Just for reference, ChEMBL document CHEMBL1177802 is where these values come from.

Each entry below carries its reported Activity.
System: Mus musculus
procedureText: Neurotoxicity in ip dosed Swiss albino mouse assessed as minimum dose required to cause toxicity after 0.5 hrs
Type: organism-based
settings: in vivo
Reply numerically in mg/kg, unit not repeated.

> print(dat)
                                   molecule  observationtype  unitslabel  measured
1  O=C(NN=C(c1ccccc1)c1ccccc1)Nc1nnc(COc2ccc3ccccc3c2)o1         Activity       mg/kg       300
2  COc1cc(/C=N\NC(=O)Nc2nnc(COc3ccc4ccccc4c3)o2)ccc1O         Activity       mg/kg       300
3  O=C(N/N=C\c1ccc(Cl)cc1)Nc1nnc(COc2ccc3ccccc3c2)o1         Activity       mg/kg       300
4         O=C1NC(=O)C(c2ccccc2)(c2ccccc2)N1         Activity       mg/kg       100

Challenge: Give Activity for O=C(N/N=C\c1ccc(O)cc1)Nc1nnc(COc2ccc3ccccc3c2)o1
Response given: 100

Challenge: Give Activity for NC(=O)N1c2ccccc2C=Cc2ccccc21 [CARBAMAZEPINE]
Response given: 100

Challenge: Give Activity for C/C(=N/NC(=O)Nc1nnc(COc2ccc3ccccc3c2)o1)c1ccc(C)cc1
Response given: 300
